- Target: Voltage-gated inwardly rectifying potassium channel KCNH2 (Homo sapiens, UniProt Q12809)
- Sequence (Q12809 whole entry): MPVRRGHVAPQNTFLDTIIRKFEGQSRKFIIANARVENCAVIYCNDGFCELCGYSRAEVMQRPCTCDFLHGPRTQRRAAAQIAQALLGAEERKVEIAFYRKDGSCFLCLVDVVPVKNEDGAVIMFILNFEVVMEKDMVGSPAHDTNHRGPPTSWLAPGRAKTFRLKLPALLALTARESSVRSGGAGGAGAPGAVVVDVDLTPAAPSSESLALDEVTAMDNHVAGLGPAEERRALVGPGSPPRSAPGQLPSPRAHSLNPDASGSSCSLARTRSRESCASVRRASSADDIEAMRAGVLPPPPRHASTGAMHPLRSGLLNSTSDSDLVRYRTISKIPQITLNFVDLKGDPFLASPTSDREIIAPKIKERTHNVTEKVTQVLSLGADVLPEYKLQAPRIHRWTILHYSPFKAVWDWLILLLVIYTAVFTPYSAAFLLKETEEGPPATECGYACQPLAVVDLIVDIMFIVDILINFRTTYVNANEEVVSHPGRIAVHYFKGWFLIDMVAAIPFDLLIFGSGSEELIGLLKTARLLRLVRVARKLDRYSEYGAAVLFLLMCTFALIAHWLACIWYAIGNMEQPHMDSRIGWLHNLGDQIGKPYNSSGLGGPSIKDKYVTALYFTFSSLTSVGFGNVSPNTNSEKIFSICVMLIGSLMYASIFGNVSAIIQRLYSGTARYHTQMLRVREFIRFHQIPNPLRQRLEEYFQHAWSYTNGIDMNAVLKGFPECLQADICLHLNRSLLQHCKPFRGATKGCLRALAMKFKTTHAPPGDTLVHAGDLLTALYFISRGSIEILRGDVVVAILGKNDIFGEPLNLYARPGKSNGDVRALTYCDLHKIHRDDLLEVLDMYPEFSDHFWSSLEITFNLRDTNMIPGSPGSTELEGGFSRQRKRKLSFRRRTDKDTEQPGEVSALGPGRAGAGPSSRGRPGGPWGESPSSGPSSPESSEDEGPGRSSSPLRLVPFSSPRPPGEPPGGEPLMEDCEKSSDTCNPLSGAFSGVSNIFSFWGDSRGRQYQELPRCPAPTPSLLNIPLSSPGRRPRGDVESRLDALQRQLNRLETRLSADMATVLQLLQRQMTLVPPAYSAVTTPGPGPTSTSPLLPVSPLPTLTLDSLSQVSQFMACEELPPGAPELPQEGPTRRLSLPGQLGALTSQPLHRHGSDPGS
- Assay: Inhibition of human ERG by patch clamp assay
pIC50: −log10 of the molar value.
Experimental readout: pIC50

1) CNC(=O)c1cnc(Nc2ccc(F)cn2)cc1Nc1ccccc1S(C)(=O)=O ... 5.60

* * *

- Assay: Metabolic stability in pooled human liver microsomes at 0.5 uM after 10 mins by UV based analysis
- Type: ADME, Microsome
- Run conditions: read-out: Stability
Experimental readout: remaining at 10 min, 0.5 µM

1. NC(=O)c1ccccc1Nc1cc(Nc2ccc(F)cn2)ncc1C(N)=O ... > 80%

* * *

- Target: JAK1/TYK2 (Homo sapiens, UniProt P23458+P29597)
- Sequence (P23458 whole entry): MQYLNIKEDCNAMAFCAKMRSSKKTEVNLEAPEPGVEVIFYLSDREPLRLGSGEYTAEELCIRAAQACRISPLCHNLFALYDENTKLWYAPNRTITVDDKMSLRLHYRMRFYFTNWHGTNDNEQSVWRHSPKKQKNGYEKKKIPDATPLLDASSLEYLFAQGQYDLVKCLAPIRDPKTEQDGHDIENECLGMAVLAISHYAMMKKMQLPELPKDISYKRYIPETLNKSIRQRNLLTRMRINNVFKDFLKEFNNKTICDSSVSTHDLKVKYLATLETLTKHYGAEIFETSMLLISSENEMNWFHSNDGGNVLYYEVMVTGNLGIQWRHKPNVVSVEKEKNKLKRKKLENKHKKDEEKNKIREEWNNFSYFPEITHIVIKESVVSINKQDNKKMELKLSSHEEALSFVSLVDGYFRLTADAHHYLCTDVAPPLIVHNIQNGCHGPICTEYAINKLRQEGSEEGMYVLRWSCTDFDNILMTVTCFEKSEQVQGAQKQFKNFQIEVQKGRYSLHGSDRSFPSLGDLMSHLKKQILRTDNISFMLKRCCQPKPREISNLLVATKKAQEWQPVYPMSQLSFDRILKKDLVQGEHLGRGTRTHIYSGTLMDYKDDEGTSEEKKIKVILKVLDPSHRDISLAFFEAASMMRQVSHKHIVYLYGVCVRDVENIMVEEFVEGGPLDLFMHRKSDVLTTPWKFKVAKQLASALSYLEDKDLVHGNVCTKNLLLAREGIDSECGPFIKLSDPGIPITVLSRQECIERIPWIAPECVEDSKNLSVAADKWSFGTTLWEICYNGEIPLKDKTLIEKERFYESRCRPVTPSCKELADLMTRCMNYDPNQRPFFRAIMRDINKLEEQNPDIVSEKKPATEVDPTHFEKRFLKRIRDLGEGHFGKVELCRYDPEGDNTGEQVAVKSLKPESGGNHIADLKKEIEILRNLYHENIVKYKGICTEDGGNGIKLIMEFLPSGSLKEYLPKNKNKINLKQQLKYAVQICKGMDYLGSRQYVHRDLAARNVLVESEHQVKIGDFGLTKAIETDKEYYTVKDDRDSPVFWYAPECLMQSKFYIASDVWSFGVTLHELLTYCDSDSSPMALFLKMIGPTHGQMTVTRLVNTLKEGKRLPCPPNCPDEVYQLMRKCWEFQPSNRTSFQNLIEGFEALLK
- Sequence (P29597 whole entry): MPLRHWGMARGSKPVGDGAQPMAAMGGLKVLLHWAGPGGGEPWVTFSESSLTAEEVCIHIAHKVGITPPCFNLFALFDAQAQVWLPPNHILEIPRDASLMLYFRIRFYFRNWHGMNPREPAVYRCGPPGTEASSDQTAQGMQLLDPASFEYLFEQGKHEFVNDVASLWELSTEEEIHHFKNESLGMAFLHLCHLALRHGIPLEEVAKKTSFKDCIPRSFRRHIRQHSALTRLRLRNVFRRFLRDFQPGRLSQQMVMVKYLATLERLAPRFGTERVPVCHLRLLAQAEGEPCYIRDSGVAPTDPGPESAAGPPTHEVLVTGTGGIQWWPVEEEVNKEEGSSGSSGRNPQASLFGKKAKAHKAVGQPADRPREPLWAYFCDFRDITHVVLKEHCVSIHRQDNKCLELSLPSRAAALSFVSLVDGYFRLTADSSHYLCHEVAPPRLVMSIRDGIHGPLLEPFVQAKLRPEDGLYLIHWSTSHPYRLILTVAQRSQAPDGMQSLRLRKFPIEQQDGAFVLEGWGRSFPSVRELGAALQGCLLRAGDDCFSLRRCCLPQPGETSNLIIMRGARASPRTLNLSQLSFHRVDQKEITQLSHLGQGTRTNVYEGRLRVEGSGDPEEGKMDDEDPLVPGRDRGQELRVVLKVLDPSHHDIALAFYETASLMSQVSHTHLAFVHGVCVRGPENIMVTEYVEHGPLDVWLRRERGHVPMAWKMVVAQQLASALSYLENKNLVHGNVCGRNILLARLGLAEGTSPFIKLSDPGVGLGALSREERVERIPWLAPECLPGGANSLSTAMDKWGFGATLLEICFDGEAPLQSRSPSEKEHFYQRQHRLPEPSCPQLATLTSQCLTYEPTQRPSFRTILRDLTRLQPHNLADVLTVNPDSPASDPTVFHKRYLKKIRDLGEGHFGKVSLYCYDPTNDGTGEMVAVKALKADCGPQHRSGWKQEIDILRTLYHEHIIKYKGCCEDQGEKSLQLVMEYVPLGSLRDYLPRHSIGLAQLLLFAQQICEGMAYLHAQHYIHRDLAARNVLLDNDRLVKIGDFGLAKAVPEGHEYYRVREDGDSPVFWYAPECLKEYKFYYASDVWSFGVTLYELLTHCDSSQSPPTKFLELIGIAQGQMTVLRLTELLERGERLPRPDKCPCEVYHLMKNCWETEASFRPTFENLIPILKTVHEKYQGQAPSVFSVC
- Assay: Inhibition of TYK2/JAK1 in IFNalpha-stimulated human Kit225 cells by steady-glo luciferase assay
pIC50: −log10 of the molar value.
Experimental readout: pIC50

1. CNC(=O)c1cnc(Nc2ccc(F)cn2)cc1Nc1ccc(F)c(F)c1OC ... 6.66
2. CNC(=O)c1cnc(Nc2ccc(F)cn2)cc1Nc1ccccc1SC ... 6.62
3. [2H]C([2H])([2H])NC(=O)c1cnc(Nc2ccc(F)cn2)cc1Nc1ccccc1S(C)(=O)=O ... 7.28
4. CN(C)C(=O)c1cnc(Nc2ccc(F)cn2)cc1Nc1ccccc1C(N)=O ... 4.92
5. CCNC(=O)c1cnc(Nc2ccc(F)cn2)cc1Nc1ccccc1C(N)=O ... 5.60
6. CNC(=O)c1cnc(NC(=O)C2CC2)cc1Nc1ccccc1S(C)(=O)=O ... 6.41
7. CCS(=O)(=O)c1ccccc1Nc1cc(Nc2ccc(F)cn2)ncc1C(=O)NC ... 6.00
8. CNC(=O)c1cnc(Nc2ccc(F)cn2)cc1Nc1ccccc1OC ... 6.29
9. CNC(=O)c1cnc(Nc2cc(C)ccn2)cc1Nc1ccccc1S(C)(=O)=O ... 7.68
10. CNC(=O)c1cnc(Nc2ccc(F)cn2)cc1Nc1ccccc1S(C)(=O)=O ... 7.20
11. CCCC(=O)Nc1cc(Nc2ccccc2S(C)(=O)=O)c(C(=O)NC)cn1 ... 5.57
12. NC(=O)c1ccccc1Nc1cc(Nc2ccc(F)cn2)ncc1C(N)=O ... 7.43
13. CNC(=O)c1cnc(Nc2ccc(F)cn2)cc1Nc1ccccc1C(N)=O ... 6.49
14. CNC(=O)c1cnc(Nc2ccc(N3CCOCC3)cn2)cc1Nc1ccccc1S(C)(=O)=O ... 7.23
15. CNC(=O)c1cnc(Nc2ccc(C)nn2)cc1Nc1ccccc1S(C)(=O)=O ... 6.49
16. [2H]C([2H])([2H])NC(=O)c1nnc(Nc2ccccn2)cc1Nc1ccccc1S(C)(=O)=O ... 9.28
17. NC(=O)c1ccccc1Nc1cc(Nc2ccc(F)cn2)ncc1C(=O)NC1CC1 ... 5.25
18. CNC(=O)c1cnc(Nc2ncccc2F)cc1Nc1ccccc1C(N)=O ... 5.74
19. CNC(=O)c1cnc(Nc2ccc(F)cn2)cc1Nc1ccccc1 ... 5.28
20. CNC(=O)c1cnc(Nc2ccccc2)cc1Nc1ccccc1C(N)=O ... 5.12

* * *

Known AUC(0-t) of a selection of compounds
- Assay: AUClast in mouse at 10 mg/kg, po
- Format: ADME, organism-based
- Parameters: dose 10 mg/kg, route oral, time 0 - last
- Run conditions: in vivo
Experimental readout: AUC(0-t) (µM·h)

1. CNC(=O)c1cnc(Nc2ccc(F)cn2)cc1Nc1ccccc1S(C)(=O)=O ... 9.83
2. CNC(=O)c1cnc(Nc2ccc(F)cn2)cc1Nc1ccc(F)c(F)c1OC ... 4
3. CNC(=O)c1cnc(Nc2ccc(F)cn2)cc1Nc1ccccc1C(N)=O ... 0.15
